molecular target: BACE1 (Homo sapiens); construct: endogenous in cells; experiment: Cellular Aβ-lowering assay (Abeta 40 AlphaLISA); conditions: HEK293 APP cells, 18-20 hrs incubation, Aβ 40 in culture supernatant; read-out: BACE1 cell act. Aβ40 IC50
Sequence (P56817 46-501): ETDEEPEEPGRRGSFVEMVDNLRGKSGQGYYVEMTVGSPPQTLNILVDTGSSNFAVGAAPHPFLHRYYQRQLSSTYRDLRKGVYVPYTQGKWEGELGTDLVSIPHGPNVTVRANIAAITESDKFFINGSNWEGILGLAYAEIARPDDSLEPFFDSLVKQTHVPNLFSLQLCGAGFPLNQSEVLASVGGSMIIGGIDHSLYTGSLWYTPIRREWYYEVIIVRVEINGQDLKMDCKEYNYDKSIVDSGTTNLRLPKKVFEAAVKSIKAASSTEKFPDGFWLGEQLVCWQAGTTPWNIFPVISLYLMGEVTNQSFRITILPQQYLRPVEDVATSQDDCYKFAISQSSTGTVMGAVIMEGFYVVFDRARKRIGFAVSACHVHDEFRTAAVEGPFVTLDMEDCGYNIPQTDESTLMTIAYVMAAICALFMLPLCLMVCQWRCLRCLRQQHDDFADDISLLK
Please go through the items and note down their IC50.
Field format: number, assumed nM, no unit text.

Qu. Query (compound): Cc1cc(C#N)cnc1C(=O)Nc1ccc(F)c([C@]2(CF)C[C@@H](C(F)(F)F)OC(N)=N2)c1 ; field requested: IC50
Ans. 2

Qu. Quick one: NC1=N[C@](CF)(c2cc(NC(=O)c3cnc(OCC(F)(F)F)cn3)ccc2F)C[C@@H](C(F)(F)F)O1
Ans. 17

Qu. Continue with NC1=N[C@](CF)(c2cc(NC(=O)c3ccc(Cl)cn3)ccc2F)C[C@@H](C(F)(F)F)O1
Ans. 22

Qu. Subsequent entry: C[C@@]1(c2cc(NC(=O)c3cnc(OCC(F)F)cn3)ccc2F)C[C@@H](C(F)(F)F)OC(N)=N1
Ans. 24

Qu. Now the same for C[C@@]1(c2cc(NC(=O)c3ccc(C(F)F)cn3)ccc2F)C[C@@H](C(F)(F)F)OC(N)=N1
Ans. 2

Qu. Moving on to the next compound: Cc1cc(C#N)cnc1C(=O)Nc1ccc(F)c([C@]2(C)C[C@@H](C(F)(F)F)OC(N)=N2)c1
Ans. 3

Qu. Queued: C[C@@]1(c2cc(NC(=O)c3coc(CF)n3)ccc2F)C[C@@H](C(F)(F)F)OC(N)=N1
Ans. 0.8

Cited source for all entries: patent US9067926B2
